Target: CD3ε homodimer protein (human, UniProt P07766 23-126, limits assumed)
Sequence (P07766 23-126 limits assumed): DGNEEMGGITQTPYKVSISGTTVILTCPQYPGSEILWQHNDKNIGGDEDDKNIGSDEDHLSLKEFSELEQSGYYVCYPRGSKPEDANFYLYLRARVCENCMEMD
Test: SPR, immobilized CD3ε homodimer;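 further: biacore T200 surface plasmon resonance at 25 °C, antibody variants flowed as analytes over amine-coupled CD3ε homodimer on a CM4 chip, variant binding amount divided by that of GLS3000 antibody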

[
  {
    "binder": "GLS3000 H27dF (antibody, name in Kabat numbering, V domains shown, one-arm format as m2) VH: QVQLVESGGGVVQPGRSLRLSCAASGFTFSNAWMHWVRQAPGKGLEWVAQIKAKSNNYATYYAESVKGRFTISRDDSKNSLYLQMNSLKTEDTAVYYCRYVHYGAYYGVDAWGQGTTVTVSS VL: DIVMTQSPLSLPVTPGEPASISCRSSQSLVFSNRNTYLHWYQQKPGQAPRLLIYKVSNRFSGVPDRFSGSGSGTDFTLKISRVEAEDVGVYYCGQGTQVPYTFGQGTKLEIK",
    "ratio of amounts bound (vs GLS3000)": 0.63
  },
  {
    "binder": "GLS3000 N28K (antibody, name in Kabat numbering, V domains shown, one-arm format as m2) VH: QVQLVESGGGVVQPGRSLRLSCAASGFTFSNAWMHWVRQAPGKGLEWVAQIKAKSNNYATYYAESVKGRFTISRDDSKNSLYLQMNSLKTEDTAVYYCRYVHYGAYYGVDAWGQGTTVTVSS VL: DIVMTQSPLSLPVTPGEPASISCRSSQSLVHSKRNTYLHWYQQKPGQAPRLLIYKVSNRFSGVPDRFSGSGSGTDFTLKISRVEAEDVGVYYCGQGTQVPYTFGQGTKLEIK",
    "ratio of amounts bound (vs GLS3000)": 0.44
  },
  {
    "binder": "GLS3000 S27eV (antibody, name in Kabat numbering, V domains shown, one-arm format as m2) VH: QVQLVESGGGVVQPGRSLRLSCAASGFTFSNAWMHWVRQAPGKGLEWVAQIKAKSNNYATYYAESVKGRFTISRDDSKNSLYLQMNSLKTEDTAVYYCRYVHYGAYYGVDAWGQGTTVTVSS VL: DIVMTQSPLSLPVTPGEPASISCRSSQSLVHVNRNTYLHWYQQKPGQAPRLLIYKVSNRFSGVPDRFSGSGSGTDFTLKISRVEAEDVGVYYCGQGTQVPYTFGQGTKLEIK",
    "ratio of amounts bound (vs GLS3000)": 1.08
  }
]
